# Experimental target: FGFR3 (V555M) (Homo sapiens (Human), UniProt P22607, V555M)
# Sequence (P22607 23-806 V555M): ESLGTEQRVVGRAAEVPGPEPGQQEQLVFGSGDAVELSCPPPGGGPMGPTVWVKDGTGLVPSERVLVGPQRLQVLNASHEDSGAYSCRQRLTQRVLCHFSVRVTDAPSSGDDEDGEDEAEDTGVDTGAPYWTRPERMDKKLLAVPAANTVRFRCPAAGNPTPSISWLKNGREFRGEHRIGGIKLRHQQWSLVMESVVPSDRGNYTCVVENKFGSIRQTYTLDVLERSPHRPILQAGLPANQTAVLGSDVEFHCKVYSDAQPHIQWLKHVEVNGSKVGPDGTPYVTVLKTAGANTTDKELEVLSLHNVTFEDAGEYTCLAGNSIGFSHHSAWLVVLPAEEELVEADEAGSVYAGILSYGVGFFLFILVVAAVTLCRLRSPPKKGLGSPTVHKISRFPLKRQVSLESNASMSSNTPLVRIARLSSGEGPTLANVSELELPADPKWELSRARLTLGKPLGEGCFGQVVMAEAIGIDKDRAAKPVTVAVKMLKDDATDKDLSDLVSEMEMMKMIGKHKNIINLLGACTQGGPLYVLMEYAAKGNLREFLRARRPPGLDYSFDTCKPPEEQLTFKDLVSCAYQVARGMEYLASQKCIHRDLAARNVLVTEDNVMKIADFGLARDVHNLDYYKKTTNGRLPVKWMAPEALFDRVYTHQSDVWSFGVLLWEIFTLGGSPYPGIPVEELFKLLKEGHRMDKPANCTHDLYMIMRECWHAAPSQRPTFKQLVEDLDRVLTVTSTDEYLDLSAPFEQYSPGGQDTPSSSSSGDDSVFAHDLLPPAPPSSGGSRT
# Test summary: Kinase assay, binding constants (Kd), kinase-tagged T7 phage, qPCR
# Assay context: V555M mutant
Endpoint: Kd

[in] Entry `C[C@@H](Oc1ccc2[nH]nc(-c3cnc(N4CC[C@@H](O)C4)c(C#N)c3)c2c1)c1c(Cl)cncc1Cl` , system FGFR3 (V555M) (Homo sapiens (Human), UniProt P22607, V555M): what Kd was measured?
[out] 1 to 20 nM

[in] Entry `CCN1C2CC1CN(c1ccc(-c3n[nH]c4cc(OC)c(O[C@H](C)c5c(C)cnnc5C)cc34)cn1)C2` , system FGFR3 (V555M) (Homo sapiens (Human), UniProt P22607, V555M): what Kd was measured?
[out] 1 to 20 nM

[in] Entry `C[C@@H](Oc1ccc2[nH]nc(-c3cnc(N4CC(C(F)(F)F)C4)c(C#N)c3)c2c1)c1c(Cl)cncc1Cl` , system FGFR3 (V555M) (Homo sapiens (Human), UniProt P22607, V555M): what Kd was measured?
[out] 20 to 100 nM

[in] Entry `C[C@@H](Oc1ccc2[nH]nc(-c3cnc(N4CCC5(CC4)CCS(=O)(=O)C5)c(F)c3)c2c1)c1c(Cl)cncc1Cl` , system FGFR3 (V555M) (Homo sapiens (Human), UniProt P22607, V555M): what Kd was measured?
[out] 1 to 20 nM
